# Tested on: B. subtilis 168;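 also: OD595 on entry to stationary phase over no-drug wells; at most 1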
# Protocol notes: fitness (endpoint OD595 vs no drug) (fraction); higher = more growth
# Condition description: first compound 0.5 µg/mL; partner 0.0625 µg/mL
Observation type: fitness
// no unit string in output, number only

{"Molecule": "CC[C@H]1OC(=O)[C@H](C)[C@@H](O[C@H]2C[C@@](C)(OC)[C@@H](O)[C@H](C)O2)[C@H](C)[C@@H](O[C@@H]2O[C@H](C)C[C@H](N(C)C)[C@H]2O)[C@](C)(O)C[C@@H](C)CN(C)[C@H](C)[C@@H](O)[C@]1(C)O [Azithromycin] + CC1=C\\[C@@H](O)CC(=O)Cc2nc(co2)C(=O)N2CCC=C2C(=O)O[C@H](C(C)C)[C@H](C)/C=C/C(=O)NC\\C=C\\1 [Virginiamycin M1]", "Observation type": "fitness", "Observed measurement": 0.803}
{"Molecule": "CC[C@H]1OC(=O)[C@H](C)[C@@H](O[C@H]2C[C@@](C)(OC)[C@@H](O)[C@H](C)O2)[C@H](C)[C@@H](O[C@@H]2O[C@H](C)C[C@H](N(C)C)[C@H]2O)[C@](C)(O)C[C@@H](C)CN(C)[C@H](C)[C@@H](O)[C@]1(C)O [Azithromycin] + CCC[C@@H]1C[C@@H](C(=O)N[C@@H]([C@H]2O[C@H](SC)[C@H](O)[C@@H](O)[C@H]2O)[C@H](C)Cl)N(C)C1 [Clindamycin]", "Observation type": "fitness", "Observed measurement": 0.554}

Task: Need fitness of CC[C@H]1OC(=O)[C@H](C)[C@@H](O[C@H]2C[C@@](C)(OC)[C@@H](O)[C@H](C)O2)[C@H](C)[C@@H](O[C@@H]2O[C@H](C)C[C@H](N(C)C)[C@H]2O)[C@](C)(O)C[C@@H](C)CN(C)[C@H](C)[C@@H](O)[C@]1(C)O [Azithromycin] + CO/N=C(\C(=O)N[C@@H]1C(=O)N2C(C(=O)O)=C(COC(C)=O)CS[C@H]12)c1csc(N)n1 [Cefotaxime] , thanks.
Result: 0.631

Task: Give its fitness value. Item: CC[C@H]1OC(=O)[C@H](C)[C@@H](O[C@H]2C[C@@](C)(OC)[C@@H](O)[C@H](C)O2)[C@H](C)[C@@H](O[C@@H]2O[C@H](C)C[C@H](N(C)C)[C@H]2O)[C@](C)(O)C[C@@H](C)CN(C)[C@H](C)[C@@H](O)[C@]1(C)O [Azithromycin] + COc1c(N2C[C@@H]3CCCN[C@@H]3C2)c(F)cc2c(=O)c(C(=O)O)cn(C3CC3)c12 [Moxifloxacin]
Result: 0.0366

* * *

# Tested on: S. pneumoniae D39V
# Protocol notes: Bliss interaction score (quartile over a dose matrix) (fitness difference); higher = more antagonism (negative = synergy)
Bliss interaction score: recorded values
Lab note: record the figure alone, no unit after it.

{"Molecule": "Cc1cc(NS(=O)(=O)c2ccc(N)cc2)no1 [Sulfamethoxazol] + CN[C@H](CC(C)C)C(=O)N[C@H]1C(=O)N[C@@H](CC(N)=O)C(=O)N[C@H]2C(=O)N[C@H]3C(=O)N[C@H](C(=O)N[C@H](C(=O)O)c4cc(O)cc(O)c4-c4cc3ccc4O)[C@H](O)c3ccc(c(Cl)c3)Oc3cc2cc(c3O[C@@H]2O[C@H](CO)[C@@H](O)[C@H](O)[C@H]2O[C@H]2C[C@](C)(N)[C@H](O)[C@H](C)O2)Oc2ccc(cc2Cl)[C@H]1O [Vancomycin]", "Bliss interaction score": 0.0444}

Task: Find the measured Bliss interaction score: item Cn1c2cccc(=O)c-2nc2ccccc21 [Pyocyanin] + CC1=C\[C@@H](O)CC(=O)Cc2nc(co2)C(=O)N2CCC=C2C(=O)O[C@H](C(C)C)[C@H](C)/C=C/C(=O)NC\C=C\1 [Virginiamycin M1] , target or system S. pneumoniae D39V.
Result: 0.0505

Task: # query: Bliss interaction score | item CC[C@H]1OC(=O)[C@H](C)[C@@H](O[C@H]2C[C@@](C)(OC)[C@@H](O)[C@H](C)O2)[C@H](C)[C@@H](O[C@@H]2O[C@H](C)C[C@H](N(C)C)[C@H]2O)[C@](C)(O)C[C@@H](C)CN(C)[C@H](C)[C@@H](O)[C@]1(C)O [Azithromycin] + CC[C@H]1OC(=O)[C@H](C)[C@@H](O[C@H]2C[C@@](C)(OC)[C@@H](O)[C@H](C)O2)[C@H](C)[C@@H](O[C@@H]2O[C@H](C)C[C@H](N(C)C)[C@H]2O)[C@](C)(O)C[C@@H](C)C(=O)[C@H](C)[C@@H](O)[C@]1(C)O [Erythromycin] | system: S. pneumoniae D39V
Result: 0.0539

* * *

# Test system: S. aureus DSM 20231
# Protocol notes: Bliss interaction score (quartile over a dose matrix) (fitness difference); higher = more antagonism (negative = synergy)
# Condition description: main component drawn
True means recorded Bliss interaction score is 0.06 or above; False means it is below 0.06.

{"Compound": "CNC(C)C1CCC(N)C(OC2C(N)CC(N)C(OC3OCC(C)(O)C(NC)C3O)C2O)O1 (stereo unspecified) [Gentamicin] + COc1cc(Cc2cnc(N)nc2N)cc(OC)c1OC [Trimethoprim]", "Group label": "False"}
{"Compound": "CNC(C)C1CCC(N)C(OC2C(N)CC(N)C(OC3OCC(C)(O)C(NC)C3O)C2O)O1 (stereo unspecified) [Gentamicin] + CC(=O)NC[C@H]1CN(c2ccc(N3CCOCC3)c(F)c2)C(=O)O1 [Linezolid]", "Group label": "True"}
{"Compound": "CNC(C)C1CCC(N)C(OC2C(N)CC(N)C(OC3OCC(C)(O)C(NC)C3O)C2O)O1 (stereo unspecified) [Gentamicin] + Cn1nnc(-c2ccc(-c3ccc(N4C[C@H](CO)OC4=O)cc3F)cn2)n1 [Tedizolid]", "Group label": "True"}

Task: Is the recorded value of Bliss interaction score equal to or greater than 0.06 for this compound? CC[C@H]1OC(=O)[C@H](C)[C@@H](O[C@H]2C[C@@](C)(OC)[C@@H](O)[C@H](C)O2)[C@H](C)[C@@H](O[C@@H]2O[C@H](C)C[C@H](N(C)C)[C@H]2O)[C@](C)(O)C[C@@H](C)CN(C)[C@H](C)[C@@H](O)[C@]1(C)O [Azithromycin] + CC(C1CCC(C(O1)OC2C(CC(C(C2O)OC3C(C(C(CO3)(C)O)NC)O)N)N)N)NC [Gentamicin]
Result: True

Task: Entry CNC(C)C1CCC(N)C(OC2C(N)CC(N)C(OC3OCC(C)(O)C(NC)C3O)C2O)O1 (stereo unspecified) [Gentamicin] + CCN(CC)CCOC(=O)c1ccc(N)cc1 [Procaine] : is its Bliss interaction score no less than 0.06?
Result: True

Task: Kindly determine if Bliss interaction score recorded for CNC(C)C1CCC(N)C(OC2C(N)CC(N)C(OC3OCC(C)(O)C(NC)C3O)C2O)O1 (stereo unspecified) [Gentamicin] + C[C@H]1COc2c(N3CCN(C)CC3)c(F)cc3c(=O)c(C(=O)O)cn1c23 [Levofloxacin] is above or exactly 0.06.
Result: False

* * *

# System: S. pneumoniae D39V
# Protocol notes: Bliss interaction score (quartile over a dose matrix) (fitness difference); higher = more antagonism (negative = synergy)
# Condition description: main component drawn
Entries and their Bliss interaction score
# output: bare number, no unit

Task: I'm curious: which Bliss interaction score was measured for CNC(C)C1CCC(N)C(OC2C(N)CC(N)C(OC3OCC(C)(O)C(NC)C3O)C2O)O1 (stereo not drawn) [Gentamicin] + CN[C@H](CC(C)C)C(=O)N[C@H]1C(=O)N[C@@H](CC(N)=O)C(=O)N[C@H]2C(=O)N[C@H]3C(=O)N[C@H](C(=O)N[C@H](C(=O)O)c4cc(O)cc(O)c4-c4cc3ccc4O)[C@H](O)c3ccc(c(Cl)c3)Oc3cc2cc(c3O[C@@H]2O[C@H](CO)[C@@H](O)[C@H](O)[C@H]2O[C@H]2C[C@](C)(N)[C@H](O)[C@H](C)O2)Oc2ccc(cc2Cl)[C@H]1O [Vancomycin] tested on S. pneumoniae D39V?
Result: -0.0655

Task: Lookup: Bliss interaction score / S. pneumoniae D39V / CNC(C)C1CCC(N)C(OC2C(N)CC(N)C(OC3OCC(C)(O)C(NC)C3O)C2O)O1 (stereo not drawn) [Gentamicin] + CO[C@@H]1[C@@H](OC(N)=O)[C@@H](O)[C@H](Oc2ccc3c(O)c(NC(=O)c4ccc(O)c(CC=C(C)C)c4)c(=O)oc3c2C)OC1(C)C [Novobiocin]
Result: 0.0522

Task: Request - read-out Bliss interaction score | tested on S. pneumoniae D39V | molecule CNC(C)C1CCC(N)C(OC2C(N)CC(N)C(OC3OCC(C)(O)C(NC)C3O)C2O)O1 (stereo not drawn) [Gentamicin] + COc1ccc(C[C@H](N)C(=O)N[C@H]2[C@@H](O)[C@H](n3cnc4c(N(C)C)ncnc43)O[C@@H]2CO)cc1 [Puromycin]
Result: -0.289
